Where do these numbers come from? They come from patent US11420958B2.

# Experimental system: human TLR7 (Homo sapiens (Human))
# Experiment: TLR7 inhibition reporter assay (HEK-Blue, SEAP)
# Applied conditions: HEK-Blue cells overexpressing human TLR7, gardiquimod 7.5 μM stimulation
In this section we review reported log10(IC50) values for a set of molecules.
Record value = log10 of IC50 given in µM.

Problem: Suppose we examine the molecule "Cc1cc(-c2[nH]c3ccc(-c4nnc(C(=O)NC5CCN(C(C)C)CC5)o4)cc3c2C(C)C)ccn1" ; what log10(IC50) value has been reported?
Result: -1.30

====

# Experimental system: human TLR8 (Homo sapiens (Human), UniProt Q9NR97)
# Sequence (Q9NR97 27-1041): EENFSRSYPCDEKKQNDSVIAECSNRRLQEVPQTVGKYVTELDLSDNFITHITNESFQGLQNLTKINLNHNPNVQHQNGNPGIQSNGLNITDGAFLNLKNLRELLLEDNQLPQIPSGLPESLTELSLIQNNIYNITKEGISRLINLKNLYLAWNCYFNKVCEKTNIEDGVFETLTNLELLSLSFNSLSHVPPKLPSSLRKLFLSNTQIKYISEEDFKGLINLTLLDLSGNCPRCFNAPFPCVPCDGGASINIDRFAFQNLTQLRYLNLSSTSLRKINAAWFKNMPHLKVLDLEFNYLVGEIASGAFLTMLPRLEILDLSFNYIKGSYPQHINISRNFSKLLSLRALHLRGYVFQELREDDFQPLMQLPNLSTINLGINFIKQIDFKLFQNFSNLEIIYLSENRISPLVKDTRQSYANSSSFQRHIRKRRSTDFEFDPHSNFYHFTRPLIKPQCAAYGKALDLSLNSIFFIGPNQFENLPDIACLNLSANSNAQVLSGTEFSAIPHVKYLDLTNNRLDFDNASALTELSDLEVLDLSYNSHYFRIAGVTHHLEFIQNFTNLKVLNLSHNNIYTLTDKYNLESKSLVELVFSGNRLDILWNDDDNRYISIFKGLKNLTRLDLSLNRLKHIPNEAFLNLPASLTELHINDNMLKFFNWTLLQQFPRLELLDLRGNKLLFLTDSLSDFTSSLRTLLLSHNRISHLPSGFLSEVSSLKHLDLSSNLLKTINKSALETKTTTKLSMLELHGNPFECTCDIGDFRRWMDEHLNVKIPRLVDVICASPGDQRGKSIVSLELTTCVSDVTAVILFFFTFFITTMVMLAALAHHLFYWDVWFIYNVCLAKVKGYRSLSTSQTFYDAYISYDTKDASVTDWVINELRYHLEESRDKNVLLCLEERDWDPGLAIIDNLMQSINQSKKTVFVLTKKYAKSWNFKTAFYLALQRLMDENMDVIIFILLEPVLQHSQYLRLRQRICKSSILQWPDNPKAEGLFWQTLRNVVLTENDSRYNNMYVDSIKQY
# Experiment: TLR8 inhibition reporter assay (HEK-Blue, SEAP)
# Applied conditions: HEK-Blue cells overexpressing human TLR8, R848 15.9 μM stimulation
Measurement type: pIC50
By convention, pIC50 is the negative base-10 log of a molar concentration.

Compound	Experimental system	Quantitative readout
Cc1cc(-c2[nH]c3ccc(-c4cc5c(s4)CN(C(=O)CN(C)C)CC5)cc3c2C(C)C)cc(C)n1 [Example 341]	human TLR8 (Homo sapiens (Human), UniProt Q9NR97)	8.23
Cc1cc(-c2[nH]c3ccc(-c4ccnc(-c5cn[nH]c5)c4)cc3c2C(C)C)ccn1 [Example 258]	human TLR8 (Homo sapiens (Human), UniProt Q9NR97)	8.40
COc1ccc(-c2[nH]c3ccc(-c4cccc(C(=O)N5CCCC5C)c4)cc3c2CC(F)(F)F)cc1OC (stereo not shown) [Example 32]	human TLR8 (Homo sapiens (Human), UniProt Q9NR97)	5.95
COc1ccc(-c2[nH]c3ccc(-c4cccc(N5CCNCC5)c4)cc3c2C(C)C)cc1OC [Example 411]	human TLR8 (Homo sapiens (Human), UniProt Q9NR97)	7.02
Cc1cc(-c2[nH]c3ccc(-c4sc(C5CCNCC5)nc4C)cc3c2C(C)C)ccn1 [Example 201]	human TLR8 (Homo sapiens (Human), UniProt Q9NR97)	8.54

Problem: Fill in the blank: the reported pIC50 of COc1ccc(-c2[nH]c3ccc(-c4nnc(C5CCN(CC(=O)N(C)C)CC5)[nH]4)cc3c2C(C)C)cc1OC [Example 129] is ____.
Result: 7.85

====

# Experimental system: human TLR7 (Homo sapiens (Human))
# Experiment: TLR7 inhibition reporter assay (HEK-Blue, SEAP)
# Applied conditions: HEK-Blue cells overexpressing human TLR7, gardiquimod 7.5 μM stimulation
Measurement type: pIC50
// scale note: pIC50 = -log10(conc_M); give the bare number

Problem: Which pIC50 is listed for "CNc1nnc(-c2ccc3[nH]c(-c4ccnc(C)c4)c(C(C)C)c3c2)o1" ?
Result: 6.80

Problem: For "CCc1c(-c2ccc(OC)c(OC)c2)[nH]c2ccc(-c3nnc(C(=O)N(C)C)o3)cc12" , what is its reported pIC50?
Result: 5.99

Problem: Consider the molecule shown here: Cc1cc(-c2[nH]c3ccc(-c4nnc(C5CCCN(C(C)C)C5)[nH]4)cc3c2C(C)C)cc(C)n1 (stereo not shown) [Example 357] What is its recorded pIC50?
Result: 8.36

====

# Experimental system: human TLR7 (Homo sapiens (Human), UniProt Q9NYK1)
# Sequence (Q9NYK1 27-1049): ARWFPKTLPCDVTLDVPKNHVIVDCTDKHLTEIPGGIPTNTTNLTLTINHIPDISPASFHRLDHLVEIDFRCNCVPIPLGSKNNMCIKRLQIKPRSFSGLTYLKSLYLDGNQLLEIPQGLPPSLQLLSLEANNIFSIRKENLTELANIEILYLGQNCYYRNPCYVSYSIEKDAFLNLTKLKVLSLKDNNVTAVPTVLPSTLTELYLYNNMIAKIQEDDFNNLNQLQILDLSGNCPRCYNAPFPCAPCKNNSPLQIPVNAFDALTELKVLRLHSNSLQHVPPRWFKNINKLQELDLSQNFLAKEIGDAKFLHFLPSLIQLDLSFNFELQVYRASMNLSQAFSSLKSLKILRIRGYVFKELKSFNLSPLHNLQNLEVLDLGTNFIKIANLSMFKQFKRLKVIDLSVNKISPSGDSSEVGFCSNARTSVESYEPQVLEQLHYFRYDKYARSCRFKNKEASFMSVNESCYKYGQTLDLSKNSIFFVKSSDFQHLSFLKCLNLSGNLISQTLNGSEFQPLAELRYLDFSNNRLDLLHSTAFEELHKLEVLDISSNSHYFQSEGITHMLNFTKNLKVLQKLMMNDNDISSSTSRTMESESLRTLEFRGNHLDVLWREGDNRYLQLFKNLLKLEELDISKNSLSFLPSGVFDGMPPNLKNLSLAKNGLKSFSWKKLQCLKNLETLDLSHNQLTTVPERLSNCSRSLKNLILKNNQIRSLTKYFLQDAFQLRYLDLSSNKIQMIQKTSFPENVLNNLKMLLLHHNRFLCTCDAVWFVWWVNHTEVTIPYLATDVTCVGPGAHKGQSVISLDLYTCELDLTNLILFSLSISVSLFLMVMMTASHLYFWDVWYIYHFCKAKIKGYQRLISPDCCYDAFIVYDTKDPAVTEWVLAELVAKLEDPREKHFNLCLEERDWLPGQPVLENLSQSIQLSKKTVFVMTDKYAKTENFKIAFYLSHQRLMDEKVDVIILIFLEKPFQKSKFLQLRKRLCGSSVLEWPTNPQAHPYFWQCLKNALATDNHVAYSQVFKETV
# Experiment: TLR7 inhibition reporter assay (HEK-Blue, SEAP)
# Applied conditions: HEK-Blue cells overexpressing human TLR7, gardiquimod 7.5 μM stimulation
# Description: TLR7/8/9 Inhibition Reporter Assays HEK-Blue™-cells (Invivogen) overexpressing human TLR7, TLR8 or TLR9 receptors were used for screening inhibitors of these receptors using an inducible SEAP (secreted embryonic alkaline phosphatase) reporter gene under the control of the IFN-β minimal promoter fused to five NF-κc Band AP-1-binding sites. […]
Attribute: pIC50
Scale: negative log10 of molar concentration, which is what pIC50 denotes.

Field: example entries. Status: answers known.
Chemical smiles	pIC50
CCc1c(-c2ccnc(C)c2)[nH]c2ccc(-c3noc(C4CC5(CCNCC5)C4)n3)cc12	6.49
Cc1cc(-c2[nH]c3ccc(-c4nc(C(=O)NC5CCN(C(C)C)CC5)c(C)o4)cc3c2C(C)C)ccn1	6.95
CNC(=O)CN1CCC(c2nnc(-c3ccc4[nH]c(-c5ccc(OC)c(OC)c5)c(C(C)C)c4c3)[nH]2)CC1	7.57
Cc1cc(-c2[nH]c3ccc(-c4ccc(N5CCN(C(C)C)CC5)nc4)cc3c2C(C)C)cc(C)n1	8.32

Problem: Look up pIC50: "CC(C)c1c(-c2ccnc3[nH]ncc23)[nH]c2ccc(-c3nnc(CNC45CC6CC(CC(C6)C4)C5)o3)cc12"
Result: 5.27

Problem: Param item = "COc1ccc(-c2[nH]c3ccc(-c4ccc(C5=CCNCC5)cc4)cc3c2C)cc1OC" ; retrieve measured pIC50.
Result: 5.06

Problem: Request the reported pIC50 associated with "CC(C)c1c(-c2ccnc3[nH]ncc23)[nH]c2ccc(-c3noc(C[C@@H]4CCCN4)n3)cc12"
Result: 6.87

====

# Experimental system: human TLR7 (Homo sapiens (Human), UniProt Q9NYK1)
# Experiment: TLR7 inhibition reporter assay (HEK-Blue, SEAP)
# Applied conditions: HEK-Blue cells overexpressing human TLR7, gardiquimod 7.5 μM stimulation
Measurement type: log10(IC50) (log10 of the value in nM)
Scale type: logarithmic (base 10). Underlying IC50 unit: nM.

Molecule	Quantitative readout
COc1ccc(-c2[nH]c3ccc(-c4ccc(OC5CCN(C(C)C)CC5)cc4)cc3c2C(C)C)cc1OC [Example 389]	2.53
Cc1cc(-c2[nH]c3ccc(-c4nc(C(=O)NCC5CCNC5)co4)cc3c2C(C)C)cc(C)n1 (stereo not shown) [Example 276]	1.69
Cc1cc(-c2[nH]c3ccc(-c4nnc([C@@H]5CCCN(C(C)C)C5)o4)cc3c2C(C)C)cc(C)n1 [Example 245]	0.73
CC(C)c1c(-c2ccnc3[nH]ncc23)[nH]c2ccc(-c3nnc(C4CN5CCC4CC5)o3)cc12 (stereo not shown) [Example 220]	1.88
COc1ccc(-c2[nH]c3ccc(-c4nnc(C5CCN(C(=O)CN(C)C)CC5)[nH]4)cc3c2C(C)C)cc1OC [Example 131]	1.46
CC(C)c1c(-c2ccnc3[nH]ncc23)[nH]c2ccc(-c3noc(C4CCN(C(=O)CN(C)C)CC4)n3)cc12 [Example 446]	1.43

Query molecule follows.
Problem: Record CC(C)c1c(-c2ccnc3[nH]ncc23)[nH]c2ccc(-c3nnc(C(=O)NC4CCN(C(C)C)CC4)s3)cc12 [Example 203] : what is its log10(IC50) with human TLR7 (Homo sapiens (Human), UniProt Q9NYK1)?
Result: 1.75

====

# Experimental system: human TLR9 (Homo sapiens (Human), UniProt Q9NR96)
# Sequence (Q9NR96 26-1032): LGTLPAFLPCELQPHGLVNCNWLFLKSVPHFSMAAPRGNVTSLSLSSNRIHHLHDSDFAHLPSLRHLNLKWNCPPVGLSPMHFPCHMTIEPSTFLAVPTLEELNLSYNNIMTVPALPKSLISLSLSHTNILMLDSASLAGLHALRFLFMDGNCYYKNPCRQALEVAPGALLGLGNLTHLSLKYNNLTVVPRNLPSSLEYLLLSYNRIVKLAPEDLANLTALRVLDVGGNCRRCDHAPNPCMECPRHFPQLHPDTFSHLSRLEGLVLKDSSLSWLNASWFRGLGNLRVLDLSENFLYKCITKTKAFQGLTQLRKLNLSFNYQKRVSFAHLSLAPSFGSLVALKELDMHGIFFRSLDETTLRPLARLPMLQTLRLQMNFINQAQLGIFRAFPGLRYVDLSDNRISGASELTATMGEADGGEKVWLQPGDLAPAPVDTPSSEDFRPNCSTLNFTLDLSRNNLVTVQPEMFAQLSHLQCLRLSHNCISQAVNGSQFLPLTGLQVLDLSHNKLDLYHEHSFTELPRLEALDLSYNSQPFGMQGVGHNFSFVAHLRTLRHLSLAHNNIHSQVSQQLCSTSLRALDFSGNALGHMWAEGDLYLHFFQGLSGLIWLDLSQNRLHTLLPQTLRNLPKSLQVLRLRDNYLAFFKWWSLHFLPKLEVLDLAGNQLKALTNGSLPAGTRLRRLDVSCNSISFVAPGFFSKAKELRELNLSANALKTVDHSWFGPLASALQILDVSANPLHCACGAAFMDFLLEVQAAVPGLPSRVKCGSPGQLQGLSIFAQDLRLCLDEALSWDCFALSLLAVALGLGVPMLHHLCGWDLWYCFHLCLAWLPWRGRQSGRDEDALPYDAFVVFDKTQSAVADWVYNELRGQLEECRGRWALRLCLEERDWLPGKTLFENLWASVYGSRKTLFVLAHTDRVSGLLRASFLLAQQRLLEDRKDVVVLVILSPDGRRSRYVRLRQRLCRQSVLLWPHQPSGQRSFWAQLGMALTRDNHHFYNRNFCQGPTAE
# Experiment: TLR9 inhibition reporter assay (HEK-Blue, SEAP)
# Applied conditions: HEK-Blue cells overexpressing human TLR9, ODN2006 5 nM stimulation
Measurement type: log10 IC50 (log10 of the value in µM)
In our notation, the value equals log10 of IC50 in µM.

In the examples that follow, each entry is paired with its recorded log10 IC50.
Compound	log10 IC50
CCc1c(-c2ccc(OC)c(OC)c2)[nH]c2ccc(-c3ccncc3)cc12	1.63
CCc1c(-c2ccc(OC)c(OC)c2)[nH]c2ccc(-c3nnc(C(=O)NC4CCN(C(C)C)CC4)o3)cc12	-0.36
CCc1c(-c2ccc(OC)c(OC)c2)[nH]c2ccc(-c3noc(CCC4CCNCC4)n3)cc12	0.54
CC(C)c1c(-c2ccnc3[nH]ncc23)[nH]c2ccc(-c3ccnc4[nH]ncc34)cc12	1.38

Next item in the queue.
Problem: State its log10 IC50 on human TLR9 (Homo sapiens (Human), UniProt Q9NR96): "COc1ccc(-c2[nH]c3ccc(-c4nnc(C5CCN(C(C)C)CC5)o4)cc3c2C(C)C)cc1OC"
Result: -0.01

====

Here, each record is paired with measured IC50 data.
# Experimental system: human TLR7 (Homo sapiens (Human))
# Experiment: TLR7 inhibition reporter assay (HEK-Blue, SEAP)
# Applied conditions: HEK-Blue cells overexpressing human TLR7, gardiquimod 7.5 μM stimulation
A number alone suffices; assume nM.

Compound	IC50 (nM)
CC(C)c1c(-c2ccnc3[nH]ncc23)[nH]c2ccc(-c3cccnc3)cc12 [Example 467]	208
COc1ccc(-c2[nH]c3ccc(-c4cccc(C(=O)N[C@H]5CC[C@H](C(C)(C)O)CC5)c4)cc3c2C(C)C)cc1OC [Example 7]	1790
Cc1cc(-c2[nH]c3ccc(-c4nc(C(=O)NCCCN(C)C)co4)cc3c2C(C)C)cc(C)n1 [Example 280]	3.8
COc1ccc(-c2[nH]c3ccc(-c4nnc(C(=O)NCCNC(C)=O)o4)cc3c2C(C)C)cc1OC [Example 100]	844
Cc1cc(-c2[nH]c3ccc(-c4nnc(C(=O)N5CCC(N)CC5)o4)cc3c2C(C)C)cc(C)n1 [Example 230]	19
Cc1cc(-c2[nH]c3ccc(-c4nnc(C5CCCN(C)C5)o4)cc3c2C(C)C)ccn1 (stereo not shown) [Example 159]	24

Let us move to another entry and its IC50.
Problem: Please report the recorded IC50 for Cc1cc(-c2[nH]c3ccc(-c4ccc(NC(=O)C(F)(F)F)nc4)cc3c2C(C)C)ccn1 [Example 295] .
Result: 11
